target entity: (NPNA)3 (Plasmodium falciparum)
protocol summary: BLI, target on sensor
Measured pKd by item
On this scale, pKd is minus log10 of a concentration expressed in M (mol/L).

Problem: Could you tell me which pKd is on file for AB-007042 (antibody, V domains shown) VH: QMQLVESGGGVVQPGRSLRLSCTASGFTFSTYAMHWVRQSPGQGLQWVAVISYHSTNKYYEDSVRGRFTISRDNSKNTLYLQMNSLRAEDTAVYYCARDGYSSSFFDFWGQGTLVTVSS VL: DIQMTQSPSTLSASVGDRVAITCRASQDISRWLAWYQQQPGKAPKLLMSGASVLESGVPSRFSGSGSGTEFTLTISSLQPDDFATYYCQHYNSYFVTFGQGTKVEIK ?
Solution: 11.50

Problem: For the binder shown here, AB-007033 (antibody, V domains shown) VH: QMQLVESGGGVVQPGRSLRLSCAASGFTFSTYAMHWVRQAPGQGLEWVAVISYHSTNKYYADSVRGRFTISRDNSKNTLYLQMNSLRAEDTAVYYCARDGYSSSFFDFWGQGTLVTVSS VL: DIQMTQSPSTLSASVGDRVTITCRASQSISRWLAWYQQQPGKAPKLLMSGASVLESGVPSRFSGSGSGTEFTLTISSLQPDDFATYYCQHYNSYFVTFGQGTKVEIK , give the reported pKd.
Solution: 9.81
